molecular target: Pro-neuregulin-1, membrane-bound isoform (Homo sapiens); test: NRG1 binders on small-molecule microarrays, primary screen, psychiatric disease protein project, biochemical, small-molecule microarray, fluorescence 635/667 (AID 1075); details: NRG1 binding, 635 nm fluorescence, higher = more signal;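 further: score combines 667 nm spot fluorescence with signal to noise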
readout name: composite z-score

What value of composite z-score has been recorded for this entry: C[C@H]1C2[C@H](Cc3ccccc3)NC(=O)[C@]23C(=O)N[C@@H](Cc2ccccc2)C(=O)N2CCC[C@H]2C(=O)NC/C=C/CC/C=C/C3[C@@H]2O[C@]12C (stereo partly specified)
0.0519

Another: CO[C@H]1O[C@H](CO)[C@@H](OC(=O)Nc2cccc(F)c2)[C@H](OC(=O)Nc2ccc3c(c2)OCO3)[C@@H]1OC(=O)Nc1ccc2c(c1)OCO2
1.25

Another: COC(=O)C1(CC(C)C)C=C2C(=C(C)C(=O)C2C)CN1 (stereo unspecified)
-0.304

Another: COCCOC(=O)N1C(=O)[C@@]2(c3ccccc31)[C@H](C(=O)Nc1nc3ccccc3s1)[C@H]1C(=O)O[C@H](c3ccccc3)[C@H](c3ccccc3)N1[C@@H]2c1ccccc1OCCO
1.05

Another: CC[C@@H](O[Si](C#C[Si](C(C)C)(C(C)C)C(C)C)(C(C)C)C(C)C)c1cn([C@H](C)c2ccccc2)nn1
0.284

Another: CCOC(=O)C=C1C[C@@H](c2cccc([N+](=O)[O-])c2)O[C@@H](c2cccc([N+](=O)[O-])c2)O1
0.962

---

biological target: Alpha-bungarotoxin (Bungarus multicinctus); assay: alpha-bungarotoxin binders on microarray, profiling panel, artefact control for SMM control protein annotation, biochemical, small-molecule microarray, Alexa647 label, 635/667 nm fluorescence (AID 1117); conditions: alpha-BTX-A647 binding fluorescence, higher = more signal
The label depends only on composite z-score: Fulfilled if it is at least 0.6, Not fulfilled if it is smaller.

Determine whether this compound has composite z-score no lower than 0.6: C[C@]1(C(=O)O)c2ccccc2C(=O)N(Cc2cc(C(F)(F)F)cc(C(F)(F)F)c2)[C@H]1c1ccc(CO)cc1
Fulfilled

Another: C=CCNC(=O)[C@H]1[C@@H]2C(=O)O[C@@H](c3ccccc3)[C@@H](c3ccccc3)N2[C@@H](c2ccc(OCCO)cc2)[C@]12C(=O)N(C(=O)OCCOC)c1ccc(C#CCC(C(=O)OC)C(=O)OC)cc12
Fulfilled

Another: COC(=O)C1=CC(CCCO)=CC(c2ccc(CN3CCCC3)cc2)N(C)C=C1C(=O)OC (stereo not drawn)
Not fulfilled

Another: O=C1N(Cc2ccccc2)Cc2ccccc2C[C@@]12COC(c1ccc(OCCCO)cc1)=N2
Not fulfilled

Another: C=C[C@H](C)[C@@H](OC(=O)Nc1ccc(SC)cc1)c1ccc(OCCO)cc1
Not fulfilled

Another: CCCC1(C(=O)OC)C=C2C(=C(C(C)C)C(=O)C2C)CN1 (stereo not drawn)
Not fulfilled

Another: COC(=O)c1c2oc(c1C(=O)OC)C(=O)N[C@H](Cc1ccccc1)Cn1cc(nn1)C1(CCCCC1)NC(=O)N[C@H](CO)CC2
Fulfilled

Another: COCCCNC(=O)[C@@]1(Cc2ccccc2I)c2ccccc2C(=O)N(C2CCCCC2)[C@H]1c1ccc(CO)cc1
Fulfilled

Another: CCCCC(=C=CC[C@H](O)c1cccc(OCCO)c1)C[C@H](O)c1cc(Cl)cc(Cl)c1O
Fulfilled

Another: C=C1C(=O)C=C2CN(C(=O)c3ccccc3)[C@@](Cc3ccc(F)cc3)(C(=O)OC)[C@@H]12
Fulfilled

Another: C=CCOC(=O)[C@H]1[C@@H]2C(=O)O[C@@H](c3ccccc3)[C@@H](c3ccccc3)N2[C@@H](c2ccc(OCCOC(=O)[C@H]3C[C@H]4C(=O)NCC(=O)N4[C@H]3c3cccc(OCCO)c3)cc2)[C@]12C(=O)Nc1ccc(I)cc12
Fulfilled

Another: C=CCN1C(=O)[C@@]2(O[C@@H](CCO)[C@H]([Si](C)(C)c3ccc(OC)cc3)[C@H]2C)c2cc(N3CCCCC3=O)ccc21
Fulfilled

Another: C=C(COC)/C(=C/C[C@@H](OC(=O)c1ccncc1)c1ccccc1OCCO)c1cnc2ccccc2c1
Fulfilled

Another: CC1CC/C=C\[C@H]2OC34C=CCN(CCN5CCOCC5)C(=O)[C@H]3N(C(CO)C(C)C)C(=O)[C@@H]4C2C(=O)O1 (stereo partly drawn)
Not fulfilled

Another: O=C1C2C=CC(C(O)C3CCCCC3)N(Nc3ccccc3F)C2C(=O)N1c1ccccc1 (stereo not drawn)
Fulfilled

Another: COC(=O)C(CC#Cc1ccc2c(c1)[C@]1(C(=O)N2)[C@H](c2ccccc2OCCO)N2[C@H](c3ccccc3)[C@H](c3ccccc3)OC(=O)[C@H]2[C@@H]1C(=O)N1CCN(c2ncccn2)CC1)C(=O)OC
Fulfilled

Another: C=CC[C@H](OC(=O)Nc1ccc(SC)cc1)c1ccc(O)c(F)c1
Not fulfilled

Another: C=C(COC)C(=O)CC[C@H](OC(C)=O)c1ccccc1OCCO
Not fulfilled

---

Record form. Attribute: composite z-score. Fill in for each entry.
system: Noggin (protein binding on small-molecule microarray); assay: Noggin binders on small-molecule microarray, primary screen, biochemical, 635/667 nm fluorescence (AID 1095); conditions: 635 nm fluorescence, higher = more signal;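 further: score merges 667 nm feature fluorescence with signal to noise over triplicate slides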
Note: the reply should be a number with no unit written.

What value of composite z-score has been recorded for this entry: CC[C@@H](O[Si](C#C[Si](C(C)C)(C(C)C)C(C)C)(C(C)C)C(C)C)c1cn([C@H](C)c2ccccc2)nn1
0.391

Another: Cc1cccc([C@H]2C[C@H]3C(Br)=C[C@@]2(CO)C(=O)[C@]32CO2)c1
0.783

Another: CCCCCCCCCCC(O)C1C=CC2C(=O)N(C)C(=O)C2N1Nc1ccccc1 (stereo not drawn)
-0.387

---

test: FRG1 promoter luciferase signal modulators, primary screen, FRG1 inhibition for FSHD, cell-based, C2C12 myotubes, firefly/Renilla luciferase, luminescence (AID 1084); details: higher = more signal, called active from +8 up or from −8 down
readout name: z-score
Note: the reply should be a number with no unit written.

What value of z-score has been recorded for this entry: COc1ccc(C(=O)Nc2ccc(CN3C(=O)[C@@]4(O[C@@H](CC(=O)N(CCO)Cc5ccccc5)[C@H]([Si](C)(C)c5ccc(OC)cc5)[C@H]4C)c4ccccc43)cc2)cc1
-2.13

Another: OCCCc1cc[n+](Cc2cc3c(cc2Br)OCO3)cc1
0.584

Another: CCCC[C@@H](O)C1=C(C)Cn2c(=O)n(-c3ccccc3)c(=O)n2[C@H]1CO
-0.755

Another: COCCCNC(=O)[C@@]1(Cc2ccccc2I)c2ccccc2C(=O)N(Cc2ccccc2OC)[C@H]1c1ccc(CO)cc1
-2.86

Another: CCOC(=O)C1=CC[C@@H](c2ccccc2)N(S(=O)(=O)c2ccc(C)cc2)[C@@H]1C#N
-0.823

Another: O=C1O[C@@H](c2ccccc2)[C@@H](c2ccccc2)N2[C@@H](c3ccc(OCCO)cc3)[C@]3(C(=O)Nc4ccc(C#CC5=CCCCC5)cc43)[C@@H](C(=O)Nc3nc4ccccc4s3)[C@H]12
4.67

Another: C=C(CCCC)C(=O)CC[C@H](OC(=O)c1ccccc1-c1ccccc1C(=O)O)c1cccc(OCCO)c1
-0.0278

Another: COc1ccc([Si](C)(C)[C@H]2[C@H](CC(=O)N(CCO)Cc3ccccc3)O[C@@]3(C(=O)N(Cc4ccc(N5C(=O)c6cccc7cccc5c67)cc4)c4ccccc43)[C@@H]2C)cc1
-3.26

Another: COc1ccc([Si](C)(C)[C@H]2[C@H](CC(=O)N3CCC[C@H]3CO)O[C@@]3(C(=O)N(C)c4ccccc43)[C@@H]2C)cc1
-0.0568

Another: [N-]=[N+]=Nc1ccccc1C[C@]1(C(=O)N2CCCCC2)N=C(c2ccc(OCCCO)cc2)O[C@H]1c1ccccc1
-3.1

---

Record form. Attribute: composite z-score. Fill in for each entry.
test: small-molecule microarray binders of probe aShh, primary screen, biochemical, biotinylated probe, 635/667 nm fluorescence (AID 1114); settings: higher = more signal;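 further: probe is biotin-labelled aShh protein from a stem cell growth factor screen; measures binding of labelled protein to compounds printed on the slide; score merges feature fluorescence at 667 nm with signal-to-noise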
Note: the reply should be a number with no unit written.

What value of composite z-score has been recorded for this entry: COC(=O)[C@@]1(Cc2ccccc2)[C@H]2c3cc(C(=O)N(C)C)n(Cc4ccc(Cl)c(C(F)(F)F)c4)c3C[C@H]2CN1C(=O)c1ccccc1
1.24

Another: CC(C)C[C@@H]1NC(=O)[C@@H]2C[C@H](C(=O)NCCCCCCNC(=O)CS)[C@H](c3ccc(O)cc3)N2C1=O
-0.0211

Another: CC(C)(C)OC(=O)CC[C@]1(C(N)=O)N=C(c2ccc(OCCCO)cc2)O[C@H]1c1ccccc1N=[N+]=[N-]
0.232

Another: C=C[C@H](C)[C@@H](OC(=O)Nc1ccc(SC)cc1)c1ccc(OCCO)cc1
-0.0643

Another: CC[C@@H](O[Si](C#C[Si](C(C)C)(C(C)C)C(C)C)(C(C)C)C(C)C)c1cn([C@H](CO)Cc2ccccc2)nn1
-0.0769

Another: COCCCNC(=O)[C@@]1(CCC(=O)OC(C)(C)C)N=C(c2ccc(OCCCO)cc2)O[C@H]1c1ccccc1
0.123

Another: C=C(C(=O)CC[C@@H](OC(=O)c1ccccc1-c1ccccc1C(=O)O)c1ccc(CO)o1)C(C)C
-0.349

Another: C#CCN(C(=O)OC(C)(C)C)[C@H](CO)c1ccccc1
-0.138

Another: [N-]=[N+]=NCc1ccccc1[C@H]1OC(c2ccc(OCCCO)cc2)=N[C@@]1(CCS(=O)(=O)c1ccccc1)C(=O)NCCN1CCOCC1
-0.107

Another: Cc1ccc(S[C@]2(C(=O)NC(C)C)CC(=O)N(Cc3ccccc3)[C@@H]2c2ccc(CO)cc2I)cc1
0.0711

Another: COC(=O)[C@@]1(Cc2ccc(OC)cc2)[C@@H]2[C@@H](CC(=O)[C@H]2CC(=O)C(=O)N(C)C)CN1C(=O)c1ccccc1
2.46

Another: CCc1cccc(NC(=O)O[C@H]2[C@H](OC(=O)Nc3ccccc3-c3ccccc3)[C@H](OC(=O)Nc3ccccc3-c3ccccc3)[C@@H](OC)O[C@@H]2CO)c1
0.0796

Another: [N-]=[N+]=NCc1ccccc1C[C@@]1(C(=O)NCCN2CCOCC2)N=C(c2ccc(OCCCO)cc2)O[C@@H]1c1ccccc1
0.358

Another: CC1CC/C=C\[C@H]2OC34C=CCN(C(C)C)C(=O)[C@H]3N(C(C)CO)C(=O)[C@@H]4C2C(=O)O1 (some centres not stated)
-0.304

Another: CCCCCCc1nc(-c2ccc(OC)nc2)c(C)c2c1[Si](C(C)C)(C(C)C)OC2
-0.154

Another: CCOC(=O)C1=CCC(c2cccn2C(=O)OC(C)(C)C)N(S(=O)(=O)c2ccc(C)cc2)C1 (configuration not stated)
0.428

Another: Cc1ccc(N2C(=O)c3ccccc3[C@@H](C(=O)NCCN3CCOCC3)[C@@H]2c2ccc(CO)cc2)nc1
-0.214

Another: C=CCC(OC(C)=O)[C@@H]1[C@@H](N(Cc2cccc3ccccc23)C(=O)c2ccc(C)cc2)c2cc(OCCCO)ccc2N1C(=O)Cc1ccc2ccccc2c1 (some centres not stated)
-0.0553

Another: COC(=O)[C@@]1(Cc2ccc(F)cc2)[C@H]2c3cc(C(=O)N4CCCC4)n(CCc4c[nH]c5cc(F)ccc45)c3C[C@H]2CN1C(=O)c1ccccc1
0.472

Another: O=C1C2C=CC(C(O)C(c3ccccc3)c3ccccc3)N(Nc3ccccc3F)C2C(=O)N1c1ccccc1 (configuration not stated)
0.108

Another: O=C1O[C@@H](c2ccccc2)[C@@H](c2ccccc2)N2[C@@H](c3ccc(OCCO)cc3)[C@]3(C(=O)Nc4ccc(C#CC5=CCCCC5)cc43)[C@@H](C(=O)Nc3nc4ccccc4s3)[C@H]12
-0.708

Another: O=C1NC(=O)C2C1C=CC(C(O)C(O)CO)N2Nc1ccccn1 (configuration not stated)
-0.0035
